System: P. digitatum
Test: Immersion washing of oranges with various solutions, decay
Format: in vivo, Penicillium digitatum
Conditions: in vivo
property_measured: Mean Decay (%)
Give just the number in %; leave the unit off.

# input compound: O=C([O-])O.[Na+] [BCB 0.25% alone, sodium bicarbonate] ; wanted: its Mean Decay (%) 46.000

So what does the record say about Mean Decay (%) for O=C([O-])O.[Na+] [BCB 0.5% alone, sodium bicarbonate] ? 27.000

Tell me the measured Mean Decay (%) of O=C([O-])O.[Na+] [BCB 3% alone, sodium bicarbonate] , please. 7.000

Please give the measured Mean Decay (%) for this compound: O=C([O-])O.[Na+] [BCB 1% alone, sodium bicarbonate] 13.000
